Values from ChEMBL document CHEMBL1201862

Below is a list of entries, each paired with its recorded GI50 value.
- System: HT-29
- Procedure summary: NCI tumour cell line growth inhibition, 48 h
Activity calls are given as the source filed them. Cut-off read from the data, not from the text of the source: active = GI50 up to about 1.1 µM and inactive = higher.

Molecule	GI50
Cc1ccc(-c2sc(-c3ccc(C)cc3)c3c2C2CCC3C2)cc1	> 50 µM (inactive)
COc1cc(C2c3cc4c(cc3C3OC[C@@H]2C3CO)OCO4)cc(OC)c1OC (stereo partly drawn)	28.4 µM (inactive)
CC1CC2=C(S(=O)(=O)c3ccccc3)CC(S(=O)(=O)c3ccccc3)(S(=O)(=O)c3ccccc3)CC21 (stereo not drawn)	> 100 µM (inactive)
COC(=O)NCCc1n[nH]c2c1C(=O)C=C(Nc1ccccc1)C2=O	24.1 µM (inactive)
COc1ccc(O)c(/C=N\Nc2ccccc2)c1	15.6 µM (inactive)

// lookup GI50 | system=HT-29 | key= CC(=O)NNc1nc(C)c(C(/C=C/c2ccccc2O)=N/N=C(N)N)s1
> 100 µM (inactive)

// lookup GI50 | system=HT-29 | key= COc1ccccc1CNC1=Nc2ccncc2S(=O)(=O)N1c1ccccc1
> 100 µM (inactive)

// lookup GI50 | system=HT-29 | key= O=C1CSC(c2cccc(Cl)c2)N1c1c(O)c(Cl)cc(Br)c1Cl (stereo not drawn)
> 100 µM (inactive)

----------
- Test system: NCI/ADR-RES
- Procedure summary: NCI tumour cell line growth inhibition, 48 h
The source made the active and inactive calls. Rule as the data show it: active = GI50 up to about 1.1 µM and inactive = higher.
Reported property: GI50

Some entries whose results are on file:
Molecule	System tested	GI50
O=S(=O)(c1ccc(-c2nnc(-c3ccc(F)cc3)o2)cc1)c1ccc(-c2nnc(-c3ccc(F)cc3)o2)cc1	NCI/ADR-RES	> 100 µM (inactive)
CN1C=Cc2nccc3cc4c(c1c23)OCO4	NCI/ADR-RES	11.9 µM (inactive)
Cc1c(N/C=C(\C#N)C(=O)c2ccc(Cl)cc2)c(=O)n(-c2ccccc2)n1C	NCI/ADR-RES	43.9 µM (inactive)

Look up GI50 for this molecule: O=C1/C(=C/c2ccc(Cl)cc2)CCC1CNc1ccc(Cl)cc1 (stereo not drawn)
26.2 µM (inactive)

Look up GI50 for this molecule: COc1cc2c(cc1O)-c1c(OC)c(O)cc3c1C(C2)N(C)CC3 (stereo not drawn)
> 100 µM (inactive)

Look up GI50 for this molecule: O=C1CSC(c2cccc(Cl)c2)N1c1c(O)c(Cl)cc(Br)c1Cl (stereo not drawn)
71 µM (inactive)

Look up GI50 for this molecule: C=C(C)[C@]12CC(C)C34OC(/C=C\C=C\CCCCCCCCC)(O[C@@H]1[C@@H]3[C@@H]1O[C@]1(CO)[C@@H](O)[C@]1(O)C(=O)C(C)=C[C@@H]41)O2 (stereo partly drawn)
18.5 µM (inactive)

Look up GI50 for this molecule: CCC(=O)NC(Nc1cccc(F)c1)(C(F)(F)F)C(F)(F)F
> 100 µM (inactive)

----------
Below is a list of entries, each paired with its recorded GI50 value.
- System: OVCAR-8
- Procedure summary: NCI tumour cell line growth inhibition, 48 h
The source made the active and inactive calls. No stated cut-off is given here; in the data, active = GI50 up to about 1.1 µM and inactive = higher.

Some entries whose results are on file:
Compound	Recorded result
Cc1c2cc[n+](C)cc2c(C)c2c1[nH]c1ccc(O)c(OCC(F)(F)F)c12	1.85 µM (inactive)
COC(=O)c1ccccc1C1CN=NC12Cc1cc(C)cc(C)c1C2=O (stereo not drawn)	> 100 µM (inactive)
S=C1CCSc2c(ccc3ccccc23)N1	> 100 µM (inactive)
C=CCc1cc(C=C(C#N)C#N)cc(OC)c1O	> 100 µM (inactive)

// lookup GI50 | system=OVCAR-8 | key= c1ccc(COC2NCCN2Cc2ccccc2)cc1 (stereo not drawn)
> 100 µM (inactive)

// lookup GI50 | system=OVCAR-8 | key= COC(=O)C1C=CCON2CCc3c(n(S(=O)(=O)c4ccccc4)c4ccccc34)C12 (stereo not drawn)
50.9 µM (inactive)

// lookup GI50 | system=OVCAR-8 | key= COC(=O)C1(C(=O)OC)CC2=C(S(=O)(=O)c3ccccc3)C[C@H](S(=O)(=O)c3ccccc3)[C@H]2C1
> 100 µM (inactive)

----------
Below is a list of entries, each paired with its recorded GI50 value.
- Test system: SR
- Procedure summary: NCI tumour cell line growth inhibition, 48 h
The source made the active and inactive calls. Rule as the data show it: active = GI50 up to about 1.1 µM and inactive = higher.

Compound	System tested	GI50
CCOP(=O)(OCC)/C(=C/NC(=S)c1ccncc1)C(=O)OC	SR	4.48 µM (inactive)

Look up GI50 for this compound: Cn1cnc([N+](=O)[O-])c1[Se]c1nc(N)nc2c1ncn2C1OC(CO)C(O)C1O (centres undefined)
> 100 µM (inactive)

Look up GI50 for this compound: CCc1n[nH]c(=O)n1/N=C/c1c(O)ccc2ccccc12
> 100 µM (inactive)

Look up GI50 for this compound: COc1cc(C2SCC(=O)N2NC(=O)c2ccc(NC(C)=O)cc2OC)ccc1O (centres undefined)
> 100 µM (inactive)

Look up GI50 for this compound: CC(C)C(=O)/C=C/c1ccc(Cl)c(Cl)c1
14.5 µM (inactive)

Look up GI50 for this compound: COC(=O)C(CCCCN)NC(=O)C(CCCCN)NC(=O)C(CCCCN)NC(C)=O.Cc1ccc(C(=O)Nc2ccc(S(=O)(=O)O)c3cc(S(=O)(=O)O)cc(S(=O)(=O)O)c23)cc1NC(=O)c1cccc(NC(=O)Nc2cccc(C(=O)Nc3cc(C(=O)Nc4ccc(S(=O)(=O)O)c5cc(S(=O)(=O)O)cc(S(=O)(=O)O)c45)ccc3C)c2)c1
> 50 µM (inactive)

Look up GI50 for this compound: CC(CO)C1=CC(C#CCOCc2ccccc2)N(C(=O)Oc2ccccc2)c2ccccc21 (centres undefined)
9.53 µM (inactive)

Look up GI50 for this compound: CC(C)(CCCCC(C)(C)[N+](C)(C)C)[N+](C)(C)C
> 100 µM (inactive)

Look up GI50 for this compound: COc1ccc2[nH]cc(CCNC(=O)[C@](O)(Cc3cn(C)c4ccccc34)[C@@]3(O)OCC(O)C3O)c2c1 (some centres undefined)
> 100 µM (inactive)

Look up GI50 for this compound: C[N+](C)(C)CCc1ccccc1
> 100 µM (inactive)

Look up GI50 for this compound: O=C(CCCCCCCCC(=O)NN1C(=O)/C(=C\c2ccc(O)c(O)c2)SC1c1ccc(Cl)cc1)NN1C(=O)/C(=C\c2ccc(O)c(O)c2)SC1c1ccc(Cl)cc1 (centres undefined)
2.08 µM (inactive)

Look up GI50 for this compound: O=C1CCC2(CCO1)OCCO2
> 100 µM (inactive)

Look up GI50 for this compound: Cn1c2ccccc2c2cc(N3CCCC3)c3c(c21)C(=O)N(c1ccccc1)C3=O
> 100 µM (inactive)

Look up GI50 for this compound: Cn1cc2c(=O)n3ncn(-c4ccc(Br)cc4)c3nc2n1
> 100 µM (inactive)

----------
- Test system: NCI-H522
- Procedure summary: NCI tumour cell line growth inhibition, 48 h
Calls of active or inactive are those of the source. No stated cut-off is given here; in the data, active = GI50 up to about 1.1 µM and inactive = higher.
Allowed answers: active, inactive

Would you please look over these solved cases?
Compound	System tested	Class assignment
Cc1ccc(-c2sc(-c3ccc(C)cc3)c3c2C2CCC3C2)cc1	NCI-H522	inactive
Nc1nc2c(c(=O)[nH]1)N=C(COP(=O)(O)OP(=O)(O)O)CN2	NCI-H522	inactive

What did this assay record as the result for COC(=O)C(F)C(Br)C(=O)OC (centres undefined) ?
inactive

What did this assay record as the result for CCOP(=O)(OCC)/C(=C/NC(=S)c1ccncc1)C(=O)OC ?
inactive

----------
- System: SK-MEL-2
- Procedure summary: NCI tumour cell line growth inhibition, 48 h
The source made the active and inactive calls. Rule as the data show it: active = GI50 up to about 1.1 µM and inactive = higher.
Below is a list of entries, each paired with its recorded GI50 value.

Some entries whose results are on file:
Compound	GI50
CCOC(=O)c1ccc(/N=C/c2ccc(N(CCC#N)S(=O)(=O)c3ccccc3)cc2C)cc1	33.5 µM (inactive)
Cc1ccc(S(=O)(=O)N/N=C2\CCCCCCCCCCC2CN(C)C)cc1 (centres undefined)	10.6 µM (inactive)
CCOC(=O)C(C(O)c1ccc([N+](=O)[O-])cc1)P(=O)(OCC)OCC (centres undefined)	> 100 µM (inactive)
C=CCN1C(=O)/C(=C/c2ccccc2)NC1=S	> 100 µM (inactive)
CC(=O)Nc1ccc2c(C(=O)O)c(C)c(O)nc2n1	> 100 µM (inactive)
C=C/C=C(\NC(=O)C(Cl)(Cl)Cl)[Si](C)(C)C	> 100 µM (inactive)
COc1ccc(C=C2C(=O)NC(=S)NC2=O)c2ccccc12	21.2 µM (inactive)
Cc1n[nH]c(CC#N)n1	> 100 µM (inactive)

Look up GI50 for this compound: C(CCCCc1nnc(N2CCCCC2)o1)CCCc1nnc(N2CCCCC2)o1
> 100 µM (inactive)

Look up GI50 for this compound: CCOC(=O)c1c(N2CCOCC2)[nH]c(=O)c(C(c2cccs2)c2c(O)c(C(=O)OCC)c(N3CCOCC3)[nH]c2=O)c1O
> 100 µM (inactive)

Look up GI50 for this compound: COC(=O)NCCc1n[nH]c2c1C(=O)C=C(Nc1ccccc1)C2=O
20.6 µM (inactive)
